This collection of values is drawn from patent US9453038B2.

subject of test: Recombinant human liver glucokinase (FLAG fusion protein) (Homo sapiens (Human), UniProt P35557)
Sequence (P35557 other isoform, or with tags, fused parts or gaps): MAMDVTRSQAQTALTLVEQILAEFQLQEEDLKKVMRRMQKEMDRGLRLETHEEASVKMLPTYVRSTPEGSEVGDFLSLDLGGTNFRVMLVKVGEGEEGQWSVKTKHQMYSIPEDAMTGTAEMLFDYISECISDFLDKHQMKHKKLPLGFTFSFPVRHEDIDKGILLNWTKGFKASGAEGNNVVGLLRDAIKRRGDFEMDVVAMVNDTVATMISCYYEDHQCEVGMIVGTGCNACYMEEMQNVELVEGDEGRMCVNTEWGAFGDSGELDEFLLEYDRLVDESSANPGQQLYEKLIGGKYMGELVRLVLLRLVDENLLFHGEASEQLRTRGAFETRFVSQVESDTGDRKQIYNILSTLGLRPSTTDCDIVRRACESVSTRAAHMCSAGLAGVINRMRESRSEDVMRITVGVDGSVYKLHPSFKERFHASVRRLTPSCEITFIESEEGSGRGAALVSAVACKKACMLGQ
measurement notes: glucokinase (GK) activation assay, Thio-NADH formation coupled to G6PDH, absorbance at 405 nm
conditions used: 2.5 mM Glu; 30° C.
pEC50: −log10 of the molar value.
This listing pairs compounds with measured pEC50.
measurement name: pEC50

1) CC(=O)N1CCCC1c1cc2[nH]c(-c3ccc(CCC(=O)O)cn3)cc2cc1Oc1ccc(C(=O)N2CCC2)nc1 (stereo not drawn) [Example 11]; 6.73
2) CN1C(=O)CCC1c1cc2[nH]c(-c3ccccc3)cc2cc1Oc1ccc(CCC(=O)O)cc1 (stereo not drawn) [Example 22]; 6.34
3) CS(=O)(=O)c1ccc(Oc2cc3cc(-c4ccc(CCC(=O)O)cn4)[nH]c3cc2Oc2ccccc2F)cc1 [Example 7]; 6.11
4) CN1C(=O)CCC1c1cc2[nH]c(-c3ncc(CCC(=O)O)s3)cc2cc1Oc1ccc(S(C)(=O)=O)cc1 (stereo not drawn) [Example 36]; 7.18
5) CN1C(=O)CCC1c1cc2[nH]c(-c3nc(CC(=O)O)cs3)cc2cc1Oc1ccc(S(C)(=O)=O)cc1 (stereo not drawn) [Example 34]; 6.93
6) CS(=O)(=O)c1ccc(Oc2cc3cc(-c4ccc(CCC(=O)O)cn4)[nH]c3nc2CN2CCCC2=O)cn1 [Example 9]; 6.27
7) COC(=O)CCc1ccc(Oc2cc3cc(-c4cnccn4)[nH]c3cc2C2CCC(=O)N2C)cc1 (stereo not drawn) [Example 23]; 8.68
8) CCS(=O)(=O)c1ccc(Oc2cc3cc(-c4ccc(CCC(=O)OC)cn4)[nH]c3cc2C2CCC(=O)N2C)cc1 (stereo not drawn) [Example 1]; 8.72
9) CN1C(=O)CCC1c1cc2[nH]c(-c3nc(CC(=O)O)c(Cl)s3)cc2cc1Oc1ccc(S(C)(=O)=O)cc1 (stereo not drawn) [Example 33]; 7.32
10) CN1C(=O)CCC1c1cc2[nH]c(-c3ccc(C(=O)NCCC(=O)O)cn3)cc2cc1Oc1ccc(S(C)(=O)=O)nc1 (stereo not drawn) [Example 8]; 6.93
11) CN1C(=O)CCC1c1cc2[nH]c(-c3ccc(OCC(=O)O)cn3)cc2cc1Oc1ccc(S(C)(=O)=O)nc1 (stereo not drawn) [Example 18]; 7.09
12) CCOP(=O)(Cc1cnc(-c2cc3cc(Oc4ccc(S(C)(=O)=O)nc4)c(C4CCC(=O)N4C)cc3[nH]2)s1)OCC (stereo not drawn) [Example 37]; 7.63
13) CCS(=O)(=O)c1ccc(Oc2cc3cc(-c4ccc(P(C)(=O)O)cn4)[nH]c3cc2C2CCC(=O)N2C)cc1 (stereo not drawn) [Example 12]; 7.27
14) COCc1ccc(Oc2cc3cc(-c4ccc(CCC(=O)O)cn4)[nH]c3cc2C2CCC(=O)N2C)cn1 (stereo not drawn) [Example 19]; 7.14
15) CN1C(=O)CCC1c1cc2[nH]c(-c3cnccn3)cc2cc1Oc1ccc(CCC(=O)O)cc1 (stereo not drawn) [Example 21]; 7.41
16) CN1C(=O)CCC1c1cc2[nH]c(-c3ncc(CCC(=O)O)s3)cc2cc1Oc1ccc(S(C)(=O)=O)nc1 (stereo not drawn) [Example 31]; 7.16
17) COC(=O)Cc1ccc(Oc2cc3cc(-c4ccccn4)[nH]c3cc2C2CCC(=O)N2C)cc1 (stereo not drawn) [Example 25]; 7.68
18) CCS(=O)(=O)c1ccc(Oc2cc3cc(-c4ccc(C(F)(F)F)cn4)[nH]c3cc2C2CCC(=O)N2CC(=O)O)cc1 (stereo not drawn) [Example 3]; 6.10
19) COC(=O)CCc1cnc(-c2cc3cc(Oc4ccc(S(C)(=O)=O)cc4)c(C4CCC(=O)N4C)cc3[nH]2)s1 (stereo not drawn) [Example 35]; 8.05
20) CN1C(=O)CCC1c1cc2[nH]c(-c3nc(CC(=O)O)c(Cl)s3)cc2cc1Oc1ccc(S(C)(=O)=O)nc1 (stereo not drawn) [Example 30]; 7.31
21) COC(=O)CCc1ccc(-c2cc3cc(Oc4ccc(C(=O)N5CCC5)nc4)c(C4CCCN4C(C)=O)cc3[nH]2)nc1 (stereo not drawn) [Example 10]; 7.86
22) COC(=O)CCc1ccc(Oc2cc3cc(-c4ccccn4)[nH]c3cc2C2CCC(=O)N2C)cc1 (stereo not drawn) [Example 26]; 8.37
23) CN1C(=O)CCC1c1cc2[nH]c(-c3ccccn3)cc2cc1Oc1ccc(CC(=O)O)cc1 (stereo not drawn) [Example 27]; 7.62
24) CN1C(=O)CCC1c1cc2[nH]c(-c3ccc(CC(C)(C)C(=O)O)cn3)cc2cc1Oc1ccc(S(C)(=O)=O)nc1 (stereo not drawn) [Example 17]; 6.97
25) CN1C(=O)CCC1c1cc2[nH]c(-c3ccc(C(F)(F)F)cn3)cc2cc1Oc1ccc(CC(=O)O)cc1 (stereo not drawn) [Example 20]; 7.19
26) CCS(=O)(=O)c1ccc(Oc2cc3cc(-c4ccc(CCC(=O)O)cn4)[nH]c3cc2C2CCC(=O)N2C)cc1 (stereo not drawn) [Example 2]; 7.27
27) COC(=O)Cc1csc(-c2cc3cc(Oc4ccc(S(C)(=O)=O)cc4)c(C4CCC(=O)N4C)cc3[nH]2)n1 (stereo not drawn) [Example 32]; 7.19

====

subject of test: Recombinant human liver glucokinase (FLAG fusion protein) (Homo sapiens (Human))
measurement notes: glucokinase (GK) activation assay, Thio-NADH formation coupled to G6PDH, absorbance at 405 nm
Assay type: biochemical
conditions used: 2.5 mM Glu; OD value of DMSO control regarded as 100%; read-out: Emax
Entry flag: rule met if Emax reaches 600%; rule not met if it does not.

1. CN1C(=O)CCC1c1cc2[nH]c(-c3cnccn3)cc2cc1Oc1ccc(CCC(=O)O)cc1 (stereo not drawn); rule met
2. CCS(=O)(=O)c1ccc(Oc2cc3cc(-c4ccc(CCC(=O)O)cn4)[nH]c3cc2C2CCC(=O)N2C)cc1 (stereo not drawn); rule met
3. CC(=O)N1CCCC1c1cc2[nH]c(-c3ccc(CCC(=O)O)cn3)cc2cc1Oc1ccc(C(=O)N2CCC2)nc1 (stereo not drawn); rule not met
4. CCS(=O)(=O)c1ccc(Oc2cc3cc(-c4ccc(CCC(=O)OC)cn4)[nH]c3cc2C2CCC(=O)N2C)cc1 (stereo not drawn); rule met
5. CCS(=O)(=O)c1ccc(Oc2cc3cc(-c4ccc(C(F)(F)F)cn4)[nH]c3cc2C2CCC(=O)N2CC(=O)O)cc1 (stereo not drawn); rule met
6. COC(=O)CCc1ccc(Oc2cc3cc(-c4ccc(C(F)(F)F)cn4)[nH]c3cc2C2CCC(=O)N2C)cc1 (stereo not drawn); rule not met
7. CN1C(=O)CCC1c1cc2[nH]c(-c3ccccc3)cc2cc1Oc1ccc(CCC(=O)O)cc1 (stereo not drawn); rule not met
8. CS(=O)(=O)c1ccc(Oc2cc3cc(-c4ccc(CCC(=O)O)cn4)[nH]c3cc2Oc2ccccc2F)cc1; rule not met
9. COC(=O)Cc1ccc(Oc2cc3cc(-c4ccccn4)[nH]c3cc2C2CCC(=O)N2C)cc1 (stereo not drawn); rule met
10. COC(=O)Cc1csc(-c2cc3cc(Oc4ccc(S(C)(=O)=O)cc4)c(C4CCC(=O)N4C)cc3[nH]2)n1 (stereo not drawn); rule not met
11. COCc1ccc(Oc2cc3cc(-c4ccc(CCC(=O)O)cn4)[nH]c3cc2C2CCC(=O)N2C)cn1 (stereo not drawn); rule not met
12. COC(=O)CCc1ccc(Oc2cc3cc(-c4cnccn4)[nH]c3cc2C2CCC(=O)N2C)cc1 (stereo not drawn); rule not met
13. COC(=O)CCc1ccc(-c2cc3cc(Oc4ccc(C(=O)N5CCC5)nc4)c(C4CCCN4C(C)=O)cc3[nH]2)nc1 (stereo not drawn); rule not met

====

Below, each of the compounds is paired with its reported Emax value.
subject of test: Recombinant human liver glucokinase (FLAG fusion protein) (Homo sapiens (Human), UniProt P35557)
measurement notes: glucokinase (GK) activation assay, Thio-NADH formation coupled to G6PDH, absorbance at 405 nm
Type: biochemical
conditions used: 2.5 mM Glu; OD value of DMSO control regarded as 100%; read-out: Emax
measurement name: Emax (%)

1) CN1C(=O)CCC1c1cc2[nH]c(-c3ncc(CCC(=O)O)s3)cc2cc1Oc1ccc(S(C)(=O)=O)cc1 (centres unmarked); 619
2) COC(=O)CCc1cnc(-c2cc3cc(Oc4ccc(S(C)(=O)=O)cc4)c(C4CCC(=O)N4C)cc3[nH]2)s1 (centres unmarked); 656
3) CCS(=O)(=O)c1ccc(Oc2cc3cc(-c4ccc(P(C)(=O)O)cn4)[nH]c3cc2C2CCC(=O)N2C)cc1 (centres unmarked); 614
4) CN1C(=O)CCC1c1cc2[nH]c(-c3ccc(C(F)(F)F)cn3)cc2cc1Oc1ccc(CC(=O)O)cc1 (centres unmarked); 521
5) CCOP(=O)(Cc1cnc(-c2cc3cc(Oc4ccc(S(C)(=O)=O)nc4)c(C4CCC(=O)N4C)cc3[nH]2)s1)OCC (centres unmarked); 696
